Measured IC50 of individual entries
System: 422866-222-R5-J1-PDC spheroid viability
Experiment: Anticancer human tumor 422866-222-R5-J1-PDC patient-derived pancreatic adenocarcinoma cell line growth inhibition [CLK]
Conditions: curve of first compound; second compound 10 µM; spheroids with HUVEC and MSC
Text: A high-throughput screen of multi-cell type tumor spheroids was designed to identify active combinations of […] and targeted small molecules. Complex spheroids include a stromal component modeled by human endothelial cells (HUVEC) and fibroblasts modeled by human mesenchymal stem cells (MSCs). […] Compounds. […] If the clinical Cmax for an agent had not been determined, the highest concentration tested was 10 microM. […]

Record excerpt, results attached:
COMPOUND: CCN1CCN(Cc2ccc(Nc3ncc(F)c(-c4cc(F)c5nc(C)n(C(C)C)c5c4)n3)nc2)CC1 + CNC(=O)c1ccc(Nc2nc(OC3CCCC3)c3c(-c4ccc5nc(C)oc5c4)c[nH]c3n2)c(OC)c1
IC50: > 1000 nM
--
COMPOUND: CCc1c2c(nc3ccc(O)cc13)-c1cc3c(c(=O)n1C2)COC(=O)[C@]3(O)CC + CNC(=O)c1ccc(Nc2nc(OC3CCCC3)c3c(-c4ccc5nc(C)oc5c4)c[nH]c3n2)c(OC)c1
IC50: < 3.16 nM
--
COMPOUND: COC1C=CCC(C)C(C)S(=O)(=O)NC(=O)c2ccc3c(c2)N(CC2CCC21)CC1(CCCc2cc(Cl)ccc21)CO3 (stereo not given) + CNC(=O)c1ccc(Nc2nc(OC3CCCC3)c3c(-c4ccc5nc(C)oc5c4)c[nH]c3n2)c(OC)c1
IC50: > 10000 nM

Query: Request the reported IC50 associated with C=CC(=O)Nc1cc(Nc2nccc(-c3cn(C)c4ccccc34)n2)c(OC)cc1N(C)CCN(C)C + CNC(=O)c1ccc(Nc2nc(OC3CCCC3)c3c(-c4ccc5nc(C)oc5c4)c[nH]c3n2)c(OC)c1
Result: > 300 nM

Query: Now this one: CCN1CCN(Cc2ccc(Nc3ncc(F)c(-c4cc(F)c5nc(C)n(C(C)C)c5c4)n3)nc2)CC1 + CN1CCN(c2cc(C(=O)Nc3cc4cc(-c5cnn(C)c5)ccc4cn3)ccn2)CC1
Result: < 3.16 nM

====

test system: 422866-222-R5-J1-PDC spheroid viability; assay: Anticancer human tumor 422866-222-R5-J1-PDC cell line growth inhibition [CLK]; settings: curve of first compound; second compound 3.16 µM; spheroids with HUVEC and MSC;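 also: spheroids exposed to agents for seven days before readout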
VALUE KIND: IC50

MOLECULE: CC1COCCN1c1cc(C2(S(C)(=N)=O)CC2)nc(-c2ccnc3[nH]ccc23)n1 (stereo not drawn) + CN1CCN(c2cc(C(=O)Nc3cc4cc(-c5cnn(C)c5)ccc4cn3)ccn2)CC1
IC50: < 31.6 nM
//
MOLECULE: CC(CO)NC(=O)c1cc(-c2ccc(Cl)cc2)nn(-c2cnn(C)c2)c1=O (stereo not drawn) + CN1CCN(c2cc(C(=O)Nc3cc4cc(-c5cnn(C)c5)ccc4cn3)ccn2)CC1
IC50: < 31.6 nM

Then there is this molecule:
Query: Request the reported IC50 associated with Nc1ccccc1NC(=O)c1ccc(CNC(=O)OCc2cccnc2)cc1 + CNC(=O)c1ccc(Nc2nc(OC3CCCC3)c3c(-c4ccc5nc(C)oc5c4)c[nH]c3n2)c(OC)c1
Result: > 10000 nM

====

test system: 422866-222-R5-J1-PDC spheroid viability; assay: Anticancer human tumor 422866-222-R5-J1-PDC cell line growth inhibition [CLK]; conditions: second compound 3.16 µM; first compound 0.3 µM; spheroids with HUVEC and MSC; active means viability on the fitted dose curve at most 10% of control; inactive means the rest;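 also: spheroids exposed to agents for seven days before readout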
Valid outcomes are listed here; reply with one: active, inactive

Take a look at these entries with their results.
COMPOUND: NC(=O)C(=Cn1cnc(-c2cc(C(F)(F)F)cc(C(F)(F)F)c2)n1)c1cncnc1 + CNC(=O)c1ccc(Nc2nc(OC3CCCC3)c3c(-c4ccc5nc(C)oc5c4)c[nH]c3n2)c(OC)c1
TARGET ENTITY: 422866-222-R5-J1-PDC spheroid viability
CATEGORY LABEL: inactive
--
COMPOUND: C=CC(=O)Nc1cc(Nc2nccc(-c3cn(C)c4ccccc34)n2)c(OC)cc1N(C)CCN(C)C + CNC(=O)c1ccc(Nc2nc(OC3CCCC3)c3c(-c4ccc5nc(C)oc5c4)c[nH]c3n2)c(OC)c1
TARGET ENTITY: 422866-222-R5-J1-PDC spheroid viability
CATEGORY LABEL: inactive
--
COMPOUND: C=CC(=O)Nc1cc(Nc2nccc(-c3cn(C)c4ccccc34)n2)c(OC)cc1N(C)CCN(C)C + CN1CCN(c2cc(C(=O)Nc3cc4cc(-c5cnn(C)c5)ccc4cn3)ccn2)CC1
TARGET ENTITY: 422866-222-R5-J1-PDC spheroid viability
CATEGORY LABEL: active
--
COMPOUND: CC(C)CC(NC(=O)C(Cc1ccccc1)NC(=O)c1cnccn1)B(O)O (stereo unspecified) + CNC(=O)c1ccc(Nc2nc(OC3CCCC3)c3c(-c4ccc5nc(C)oc5c4)c[nH]c3n2)c(OC)c1
TARGET ENTITY: 422866-222-R5-J1-PDC spheroid viability
CATEGORY LABEL: active
--
COMPOUND: NC(=O)C(=Cn1cnc(-c2cc(C(F)(F)F)cc(C(F)(F)F)c2)n1)c1cncnc1 + CN1CCN(c2cc(C(=O)Nc3cc4cc(-c5cnn(C)c5)ccc4cn3)ccn2)CC1
TARGET ENTITY: 422866-222-R5-J1-PDC spheroid viability
CATEGORY LABEL: inactive

# next compound below
Query: Returns: the outcome recorded for CC(C)CC(NC(=O)C(Cc1ccccc1)NC(=O)c1cnccn1)B(O)O (stereo unspecified) + CN1CCN(c2cc(C(=O)Nc3cc4cc(-c5cnn(C)c5)ccc4cn3)ccn2)CC1 in this assay.
Result: active

src = PubChem BioAssay AID2060603
